- TEST DESCRIPTION: soluble on expression in E. coli; label from the status in PepcDB or PDB records
PROPERTY: soluble on expression in E. coli

Look over these answered cases.
KRAPDGRVLDIAGTEHSLHDLTRGKISLVSFVYLTCGDVNGCPLAMSVFFDVHDASGDLPGLNEDVQLLTISFDPARDTVEAIEAFAYPITSDEQAGDKLNWQVLTTSGPQELRPILDGYGQVVDRSEDQETISHLLRLFLVDRQGDIRNVYGLGFLDPRLLLTDIETLLMEEAGA	soluble
MSLAFEPPRRLVRAFGETAPEGDDWLATLPEVAERAVARRGLTVERVQVPGGRSSLVVLVRTAEGAPAVLKLAPRRARPESERAALVHWGGRGAVQVREEGDEEGVLLLERLHPDVSVRSLPEAKALLEAAGTLRRLWVEPPGSHPFETVAERTGRQAEAMRAGAAADAQVAPLVDAALAARAELLGGPSEQRLLHGTFRQSKVLAGDRMPWLAVGPDPVVGESAFDLARLVRDRVEDLIAQPSGASTTRRRIKRLAESLEVDQERLRGWTLFRAVESGVRARRVGRERDAELLLEFAGWLEGHHHHHH	not soluble
LVLEGGGMRGVFTCGVLDYLMDHDIRFPYAIGVSAGACNGLSYASRQRGRAKFSNIDLLEKYNYIGLKHLLRKRNILDFDLLFNEFPEHILPYDYDTYFASPERFVMVTTNCMTGEANYFEEKRDKSRVIDIVRASSSLPFVCPVTYVDGVPMLDGGIVDSIPLQRAIADGYTRNVVILTRNRGYRKDTKDIRIPSFVYRKYPKLREALSRRCAVYNEQLEMVEQMEDEGKIIVIRPQKPVMVDRIERDVQKLTEFYEEGYDCARNLFEF	not soluble
MGSDKIHHHHHHMVELKAPLTTLWRGKDAFEEVKTLQGEVFRELETRRTLRFELDGKSYFLKWHKGTSLKEIVKNLISLRMPVLGADREWHAIHRLHELGVDTMHGVGFGEKGVNPLTRTSFIITEDLTPTISLEDYCADWAVNPPDAQVKWMIIKRVATMVRKMHAGGINHRDCYICHFLLHLPFTGREEDLKISVIDLHRAQIRQHVPLRWRDKDLIGLYFSSMNIGLTQRDIFRFMREYFSLPLREILQKESGLIHQADVKAARIKERTIRKNL	not soluble
MGKGVAFFSGGKDGLYALYLAEEMGIEVPYLLVLKTSIGLSPHWENLDALKTLAKVMEREILTFDMRRGSKALAEFISSLDVDYLIAGDVYLEDHILWVKSLAEEANVKPLEPLWGRNTRKLAEEMLREGFNWAIIAVDKRKLGKEWLGYTFRSIEDLENFLRANPNVDPLGEVGEFHTVVLNSPLFALNFELKVESIEEDERYWWLRFELREVEKWNLNS	soluble

We now examine a further sequence.
q: Note down soluble on expression in E. coli recorded for MHHHHHHSSGVDLGTENLYFQSMTKTWTLKKHFVGYPTNSDFELKTSELPPLKNGEVLLEALFLTVDPYMRVAAKRLKEGDTMMGQQVAKVVESKNVALPKGTIVLASPGWTTHSISDGKDLEKLLTEWPDTIPLSLALGTVGMPGLTAYFGLLEICGVKGGETVMVNAAAGAVGSVVGQIAKLKGCKVVGAVGSDEKVAYLQKLGFDVVFNYKTVESLEETLKKASPDGYDCYFDNVGGEFSNTVIGQMKKFGRIAICGAISTYNRTGPLPPGPPPEIVIYQELRMEAFVVYRWQGDARQKALKDLLKWVLEGKIQYKEYIIEGFENMPAAFMGMLKGDNLGKTIVKA
a: soluble
